Source: ChEMBL document CHEMBL1208724

# measured_target: C-X-C chemokine receptor type 2 (Homo sapiens, UniProt P25025)
# Sequence (P25025 whole entry): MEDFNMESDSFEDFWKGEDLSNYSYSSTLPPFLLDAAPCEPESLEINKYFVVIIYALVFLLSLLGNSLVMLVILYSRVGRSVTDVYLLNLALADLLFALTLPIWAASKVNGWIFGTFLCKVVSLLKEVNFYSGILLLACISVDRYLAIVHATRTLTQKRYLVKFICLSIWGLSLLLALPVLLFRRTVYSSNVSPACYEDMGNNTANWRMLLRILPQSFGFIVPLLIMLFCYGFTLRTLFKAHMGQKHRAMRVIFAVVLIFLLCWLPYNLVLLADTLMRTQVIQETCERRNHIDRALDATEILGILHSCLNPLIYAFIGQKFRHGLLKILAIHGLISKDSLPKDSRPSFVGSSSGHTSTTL
# assay: Displacement of [125I]IL-8 from human recombinant CXCR2 receptor expressed in HEK293 cells
pIC50: −log10 of the molar value.
recorded_metric: pIC50

Entry under test: C/C(=N\OC(=O)Nc1ccccc1)c1cccc(-c2cccs2)c1 . Its pIC50 was < 5.00

---

# assay: Inhibition of mouse brain AMT
recorded_metric: pIC50
API: returns pIC50 as number; meaning -log10 of concentration in mol/L.

Entry under test: C/C(=N\OC(=O)Nc1ccccc1)c1cccc(-c2cccs2)c1 . Its pIC50 was 7.00

---

# measured_target: D(1A) dopamine receptor (Homo sapiens)
# Sequence (P21728 whole entry): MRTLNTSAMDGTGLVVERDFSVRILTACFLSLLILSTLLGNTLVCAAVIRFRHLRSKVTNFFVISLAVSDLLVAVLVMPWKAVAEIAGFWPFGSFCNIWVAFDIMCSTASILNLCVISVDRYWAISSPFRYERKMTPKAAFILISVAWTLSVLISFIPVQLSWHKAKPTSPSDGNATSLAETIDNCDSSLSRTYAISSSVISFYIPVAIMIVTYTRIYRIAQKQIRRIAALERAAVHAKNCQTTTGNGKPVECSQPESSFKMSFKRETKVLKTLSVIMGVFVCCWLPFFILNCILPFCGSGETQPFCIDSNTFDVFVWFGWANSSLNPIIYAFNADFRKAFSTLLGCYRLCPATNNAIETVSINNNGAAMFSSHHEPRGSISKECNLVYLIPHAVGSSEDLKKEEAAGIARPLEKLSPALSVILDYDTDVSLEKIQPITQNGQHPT
# assay: Displacement of [3H]SCH 23390 from human recombinant dopamine D1 receptor expressed in CHO cells
pIC50: −log10 of the molar value.
recorded_metric: pIC50

Entry under test: C/C(=N\OC(=O)Nc1ccccc1)c1cccc(-c2cccs2)c1 . Its pIC50 was < 5.00
